All values here come from ChEMBL document CHEMBL4196200.

# tgt: UniProtKB P97926
# Sequence (P97926 whole entry): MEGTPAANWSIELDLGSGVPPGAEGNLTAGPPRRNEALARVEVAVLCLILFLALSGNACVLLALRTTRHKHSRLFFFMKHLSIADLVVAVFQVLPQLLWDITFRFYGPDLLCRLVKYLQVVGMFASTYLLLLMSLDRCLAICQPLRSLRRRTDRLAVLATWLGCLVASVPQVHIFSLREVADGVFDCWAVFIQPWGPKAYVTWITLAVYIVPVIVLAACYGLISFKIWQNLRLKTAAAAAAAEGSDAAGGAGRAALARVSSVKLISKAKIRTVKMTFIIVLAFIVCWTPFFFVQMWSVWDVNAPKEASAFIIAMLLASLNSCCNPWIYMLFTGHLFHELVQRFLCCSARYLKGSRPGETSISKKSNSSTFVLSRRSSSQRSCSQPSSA
# procedure_details: Agonist activity at mouse OTR receptor expressed in HEK293FT cells assessed as stimulation of calcium release by Aequorin based assay
Numbered stars: 1 amine (or outer) side, 2 acyl side, 3 side chain; on linkers, the order of the positions; unused ones are H or OH. Bridge positions count the residues as written; N and C are the ends. Peptide text beside a SMILES is read from it. X1 = O=C(CCC[*:2])[*:1]
measured_metric: EC50 (nM)

// query Recorded EC50 of CC[C@H](C)[C@@H]1NC(=O)[C@H](Cc2ccc(OC)cc2)NC(=O)CCCSC[C@@H](C(=O)N2CCC[C@H]2C(=O)N[C@@H](CC(C)C)C(=O)NCC(N)=O)NC(=O)[C@H](CC(N)=O)NC(=O)[C@H](CCC(N)=O)NC1=O [CARBETOCIN] (Y(Me)IQNCPLG-NH2; linker N-5 via X1) , please.
// result 62

I: Cc1cc(C(=O)N2Cc3cnn(C)c3Nc3ccccc32)ccc1CNC(=O)N1CCN(Cc2cc(O)cc(O)c2)CC1
II: Cc1cc(C(=O)N2Cc3cnn(C)c3Nc3ccccc32)ccc1CNC(=O)N1CCC[C@H]1C(=S)N(C)C
// query Of I and II , which carries the smaller reported EC50 figure? Refer to your chosen item by its label in the answer.
// result II
(II: 18 nM, I: 78 nM)
